# target system: ER (endogenous, MCF7 cells) (Homo sapiens (Human), UniProt P03372)
# Sequence (P03372 whole entry): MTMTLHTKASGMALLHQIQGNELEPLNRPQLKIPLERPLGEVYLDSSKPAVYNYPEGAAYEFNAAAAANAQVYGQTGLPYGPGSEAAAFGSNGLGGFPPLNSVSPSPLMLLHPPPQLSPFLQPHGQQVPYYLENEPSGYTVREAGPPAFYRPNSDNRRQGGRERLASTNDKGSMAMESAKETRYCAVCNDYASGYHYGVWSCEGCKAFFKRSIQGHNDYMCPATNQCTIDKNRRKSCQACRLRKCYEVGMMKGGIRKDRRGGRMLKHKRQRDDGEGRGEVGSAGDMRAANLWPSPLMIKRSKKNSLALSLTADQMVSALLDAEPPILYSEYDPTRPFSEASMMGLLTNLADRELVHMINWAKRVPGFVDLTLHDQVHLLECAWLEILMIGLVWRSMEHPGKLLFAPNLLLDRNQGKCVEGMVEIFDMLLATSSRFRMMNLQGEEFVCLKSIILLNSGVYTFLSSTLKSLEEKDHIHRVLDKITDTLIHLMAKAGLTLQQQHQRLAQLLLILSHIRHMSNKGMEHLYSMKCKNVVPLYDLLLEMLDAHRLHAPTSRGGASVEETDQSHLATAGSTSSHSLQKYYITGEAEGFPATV
# protocol notes: ER transcription assay (MCF7 cells), ERE-luciferase reporter
# Type: cell-based
# test parameters: inflection point of the inhibition of transcription in MCF7 cells; 0.1 nM estradiol, 24 hours; read-out: MCF7 IC50
assay endpoint: IC50 (nM)
Write the value in nM as a bare number.

Example entries begin here.
molecule	IC50, nM
Cc1occc1-c1sc2cc(O)ccc2c1Oc1ccc(/C=C/C(=O)O)cc1 [Example 131]	815
CCCn1cnc(/C=C/c2ccc(Oc3c(-c4ccc(O)cc4)sc4cc(O)ccc34)cc2)c1 [Example 74]	58
O=C(O)/C=C/c1ccc(Oc2c(-c3cccc(F)c3C(F)(F)F)sc3cc(O)ccc23)cc1 [Example 90]	26
O=C(O)/C=C/c1ccc(Oc2c(-c3ccccc3C3CCCC3)sc3cc(O)ccc23)cc1 [Example 87]	14
CC(C)c1ccccc1-c1sc2cc(O)ccc2c1Nc1ccc(/C=C/C(=O)O)cc1 [Example 118]	68

Query :: So what's the measured IC50 for this one? O=C(O)/C=C/c1ccc(Oc2c(-c3ccccc3C(F)F)sc3cc(O)ccc23)cc1 [Example 79]
Result :: 52
